- Experimental System: human Matrix Metalloproteinase-9 (MMP9), MMP9 (gene 4318) (UniProt P14780)
- Sequence (P14780 whole entry, looked up): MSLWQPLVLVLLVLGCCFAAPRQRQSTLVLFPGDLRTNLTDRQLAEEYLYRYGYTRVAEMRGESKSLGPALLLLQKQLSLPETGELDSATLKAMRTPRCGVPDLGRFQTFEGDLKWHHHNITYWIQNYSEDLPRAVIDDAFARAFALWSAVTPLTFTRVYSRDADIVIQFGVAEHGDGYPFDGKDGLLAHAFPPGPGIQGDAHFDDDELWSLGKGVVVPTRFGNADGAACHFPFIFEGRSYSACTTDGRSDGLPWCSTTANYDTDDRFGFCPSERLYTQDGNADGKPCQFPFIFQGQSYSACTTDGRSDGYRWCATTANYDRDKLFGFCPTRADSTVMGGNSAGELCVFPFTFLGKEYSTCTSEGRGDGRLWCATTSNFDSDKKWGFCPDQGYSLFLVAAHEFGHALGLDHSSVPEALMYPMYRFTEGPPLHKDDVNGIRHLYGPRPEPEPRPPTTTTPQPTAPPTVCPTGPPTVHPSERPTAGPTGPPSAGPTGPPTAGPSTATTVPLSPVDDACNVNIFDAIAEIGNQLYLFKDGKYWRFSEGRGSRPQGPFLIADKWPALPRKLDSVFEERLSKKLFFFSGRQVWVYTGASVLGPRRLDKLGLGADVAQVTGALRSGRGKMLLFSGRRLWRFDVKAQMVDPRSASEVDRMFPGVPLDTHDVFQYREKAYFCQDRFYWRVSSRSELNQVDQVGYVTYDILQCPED
- Run Description: NVS_ENZ_hMMP9: NovaScreen (NVS) Enzymatic Assay for human Matrix Metalloproteinase-9 (MMP9) (AID 2283190);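 note: cell-free recombinant MMP9 protease activity read by fluorescent substrate signal; active means inhibition seen as loss of fluorescence signal versus DMSO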
Inconclusive results are not listed. Activity calls are given as the source filed them. Rule for the calls: active = hit-call score of the fitted dose curve at least 0.9, where 1 is the maximum; inconclusive = response in the unintended direction; inactive = score below 0.9.
Reported Property: AC50

c1ccc2c(c1)ccc1cc3c(ccc4ccccc43)cc12 : 4.46 µM (active)
S=C(NC1CCCCC1)NC1CCCCC1 : 6.33 µM (active)

Now look at this one.
// returns reported AC50 for input `CNC(=S)N(C)C`
1.04 µM (active)

----------
- Run Description: TOX21_p53_BLA_p3_viability: Viability Assessment in the Tox21 HCT-116 p53 Agonism Beta-lactamase Assay, Phase 3 (AID 2283593);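 note: cells exposed to compound for 16 h before reading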
Records with an inconclusive call do not appear. Calls of active or inactive are those of the source. Rule for the calls: active = hit-call score of the fitted dose curve at least 0.9, where 1 is the maximum; inconclusive = response in the unintended direction; inactive = score below 0.9.
Respond with a class label; see active, inactive

Some entries whose results are on file:
CC(=O)Nc1ccc2c(c1)Cc1cc(NC(C)=O)ccc1-2 : inactive
CC(=O)[C@@]1(O)CC[C@H]2[C@@H]3C[C@H](C)C4=CC(=O)C=C[C@]4(C)[C@@]3(F)[C@@H](O)C[C@@]21C : inactive
CN(C)c1ccc(N=Nc2ccccc2C(=O)O)cc1 : active
CCCCCCOc1cc(C)c(O)c(C)c1C : inactive
COc1ccc(-c2coc3cc(O)ccc3c2=O)cc1 : inactive

Below: the item to evaluate.
Recorded call for `O=c1c2ccccc2nnn1CCl` ?
inactive
